Assign % inhibition at 10 nM to each entry below.
target: human plasma kallikrein (human, UniProt P03952 20-390; P03952 391-638); assay: cell-based or functional assay
Sequence (P03952 20-390, chain 1 of 2): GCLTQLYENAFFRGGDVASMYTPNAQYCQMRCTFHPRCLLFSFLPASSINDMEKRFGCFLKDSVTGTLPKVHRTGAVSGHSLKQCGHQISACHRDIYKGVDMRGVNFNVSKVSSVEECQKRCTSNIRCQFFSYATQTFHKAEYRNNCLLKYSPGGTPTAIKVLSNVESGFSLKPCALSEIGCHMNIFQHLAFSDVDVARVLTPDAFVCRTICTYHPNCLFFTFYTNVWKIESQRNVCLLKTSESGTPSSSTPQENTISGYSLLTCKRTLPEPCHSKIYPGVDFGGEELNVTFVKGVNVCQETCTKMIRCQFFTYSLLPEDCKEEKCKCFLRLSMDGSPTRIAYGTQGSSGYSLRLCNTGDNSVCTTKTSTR
Sequence (P03952 391-638, chain 2 of 2): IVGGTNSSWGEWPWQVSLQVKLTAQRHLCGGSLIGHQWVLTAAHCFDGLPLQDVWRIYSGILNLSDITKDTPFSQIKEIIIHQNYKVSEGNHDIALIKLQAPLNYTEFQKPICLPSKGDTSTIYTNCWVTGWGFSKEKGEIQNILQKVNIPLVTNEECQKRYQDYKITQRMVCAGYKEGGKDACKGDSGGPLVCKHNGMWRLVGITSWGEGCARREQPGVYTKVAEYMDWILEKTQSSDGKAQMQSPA
Express your answer in %, writing the number without its unit.

Lab note: measured % inhibition at 10 nM of M206-H08 (Fab, V domains shown, Tested as Fab; printed HC runs into CH1) VH: EVQLLESGGGLVQPGGSLRLSCAASGFTFSDYMMAWVRQAPGKGLEWVSSIVPSGGHTHYADSVKGRFTISRDNSKNTLYLQMNSLRAEDTAVYYCARVARGIAARSRTSYFDYWGQGTLVTVSS VL: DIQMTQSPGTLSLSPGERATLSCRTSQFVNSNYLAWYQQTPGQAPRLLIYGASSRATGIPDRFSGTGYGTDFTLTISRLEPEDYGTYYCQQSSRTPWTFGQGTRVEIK was 96

GET /value?item= M203-A03 (Fab, V domains shown) VH: EVQLLESGGGLVQPGGSLRLSCAASGFTFSVYMMIWVRQAPGKGLEWVSSISPSGGQTTYADSVKGRFTISRDNSKNTLYLQMNSLRAEDTAVYYCARVARGIAARSRTSYFDYWGQGTLVTVSS VL: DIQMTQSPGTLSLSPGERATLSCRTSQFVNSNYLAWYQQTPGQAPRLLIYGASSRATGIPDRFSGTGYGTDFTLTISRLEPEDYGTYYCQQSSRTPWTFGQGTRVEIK &field=% inhibition at 10 nM returns 69.1

The binder listed as M204-E12 (Fab, V domains shown) VH: EVQLLESGGGLVQPGGSLRLSCAASGFTFSTYMMQWVRQAPGKGLEWVSYIGPSGGKTDYADSVKGRFTISRDNSKNTLYLQMNSLRAEDTAVYYCARVARGIAARSRTSYFDYWGQGTLVTVSS VL: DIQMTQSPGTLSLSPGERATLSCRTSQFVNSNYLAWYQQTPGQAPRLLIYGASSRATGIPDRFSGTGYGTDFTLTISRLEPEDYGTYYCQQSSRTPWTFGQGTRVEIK has a reported % inhibition at 10 nM of 84.1
